Molecular target: PDE4B (Homo sapiens)
Sequence (Q07343 whole entry): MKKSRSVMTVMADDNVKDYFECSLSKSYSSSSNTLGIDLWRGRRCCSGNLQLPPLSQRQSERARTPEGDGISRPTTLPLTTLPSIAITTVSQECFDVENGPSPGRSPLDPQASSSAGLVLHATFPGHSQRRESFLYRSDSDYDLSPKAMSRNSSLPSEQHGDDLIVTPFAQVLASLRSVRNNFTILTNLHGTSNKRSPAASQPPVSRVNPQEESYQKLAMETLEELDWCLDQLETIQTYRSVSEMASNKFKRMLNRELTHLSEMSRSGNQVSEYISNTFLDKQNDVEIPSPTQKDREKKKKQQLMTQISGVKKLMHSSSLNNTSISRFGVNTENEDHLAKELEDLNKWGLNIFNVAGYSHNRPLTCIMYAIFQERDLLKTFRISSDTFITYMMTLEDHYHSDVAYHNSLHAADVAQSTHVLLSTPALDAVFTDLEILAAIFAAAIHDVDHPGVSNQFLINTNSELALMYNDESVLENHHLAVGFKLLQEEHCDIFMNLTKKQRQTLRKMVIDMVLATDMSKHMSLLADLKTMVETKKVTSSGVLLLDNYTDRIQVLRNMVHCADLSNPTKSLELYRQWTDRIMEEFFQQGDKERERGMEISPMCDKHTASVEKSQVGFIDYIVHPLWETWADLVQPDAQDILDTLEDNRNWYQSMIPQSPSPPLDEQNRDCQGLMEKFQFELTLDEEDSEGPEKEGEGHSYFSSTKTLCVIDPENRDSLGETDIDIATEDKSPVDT
Assay: In-vitro assay for PDE4 enzymes, real-time enzyme-coupled spectrophotometric assay, PDE4B Activity (Table 10)
Format: biochemical
Conditions: human PDE4B (hPDE4B), enzyme-coupled spectrophotometric assay; read-out: PDE4B Activity, hPDE4B
Structures can show the parent of a compound that is named as a salt.
QUANTITY NAME: IC50

These recorded examples may help you get a feel for the data.
• COc1ccc(Cc2ccnc(N3CCNCC3)c2)c(F)c1-c1cccc(Cl)c1 = < 5 µM
• COc1ccc(Cn2cncn2)cc1-c1cccc(C#N)c1 = 5 to 20 µM
• COc1ccc(Cc2ccc(N)nc2)nc1-c1cccc(Cl)c1 = < 5 µM

Req: # query: IC50 of entry `NC(=O)Nc1ccc(Cc2ccc(O)c(-c3cccc([N+](=O)[O-])c3)c2F)cc1`
Resp: 5 to 20 µM

Req: # query: IC50 of entry `COc1ccc(Cc2ccc(CNC(=O)CN(C)C)cc2)c(F)c1-c1cccc([N+](=O)[O-])c1`
Resp: < 5 µM

Req: # query: IC50 of entry `COc1ccc(Cc2c(C)nn(CC(N)=O)c2C)cc1-c1cccc([N+](=O)[O-])c1`
Resp: < 5 µM

Req: # query: IC50 of entry `COc1ccc(Cc2ccc3nc(C(N)=O)cn3c2)c(F)c1-c1cccc(Cl)c1`
Resp: < 5 µM

Req: # query: IC50 of entry COc1ccc(Cc2ccc(CNC(=O)N(C)C)nc2)c(F)c1-c1cccc(Cl)c1 [P-371, hydrochloride]
Resp: < 5 µM

Req: # query: IC50 of entry `O=[N+]([O-])c1cccc(-c2nc(Cc3ccc(F)cc3)ccc2OC(F)F)c1`
Resp: < 5 µM
